Kindly supply the reported hyperfine coupling constant (AO/ℏ) values for the records listed here.
experimental_protocol: 17O NMR of Gd complexes (water exchange, SBM fitting)
Assay type: physicochemical
measurement_conditions: 17O NMR fit; underlined values fixed during fitting
Experimental: Given that the rate of water exchange (kex) in these complexes is likely the limiting factor in determining the magnitude of r1 increase when the GdL-Zn complexes bind to HSA, further temperature dependent ^17O NMR studies were performed to evaluate the water exchange rates. […] ^17O NMR data have been analyzed within the framework of Solomon-Bloembergen-Morgan theory. […]

Q: Given O=C(O)CCN1CCN(CC(=O)O)CCN(CC(=O)NCCN(Cc2ccccn2)Cc2ccccn2)CCN(CC(=O)O)CC1 , state its recorded hyperfine coupling constant (AO/ℏ).
Result: −3.7 ×10^6 rad/s

Q: Returns the measured hyperfine coupling constant (AO/ℏ) for the input compound. Input: O=C(O)CN1CCN(CCC(=O)NCCN(Cc2ccccn2)Cc2ccccn2)CCN(CC(=O)O)CCN(CC(=O)O)CC1
Result: −3.7 ± 0.2 ×10^6 rad/s

Q: Item O=C(O)CN1CCN(CCC(=O)NCCN(CCc2ccccn2)Cc2ccccn2)CCN(CC(=O)O)CCN(CC(=O)O)CC1 has what recorded hyperfine coupling constant (AO/ℏ)?
Result: −3.9 ± 0.3 ×10^6 rad/s

Q: Name the reported hyperfine coupling constant (AO/ℏ) value associated with the compound O=C(O)CN1CCN(CC(=O)O)CCN(CC(=O)NCCN(Cc2ccccn2)Cc2ccccn2)CCN(CC(=O)O)CC1
Result: −4.0 ± 0.2 ×10^6 rad/s

Q: Which value of hyperfine coupling constant (AO/ℏ) has been reported for O=C(O)CN1CCN(CC(=O)O)CCN(CC(=O)NCCN(CCc2ccccn2)Cc2ccccn2)CCN(CC(=O)O)CC1 in the records?
Result: −4.0 ± 0.2 ×10^6 rad/s

====

experimental_protocol: r1 relaxivity measurements (20 MHz, 0.5 T, 37° C.)
Assay type: physicochemical
measurement_conditions: 100 mM Tris buffer, CA:Zn = 1:1
Experimental: Longitudinal relaxation times were measured using inversion recovery method on a MRS-6 NMR analyzer from the Institute Joz̆ef Stefan (Ljubljana, Slovenija) operating at 20 MHz. Relaxivity was determined by linear regression analysis of the relaxation rates of five solutions (0-1.0 mM). All samples were measured at 310 K using a warm air blower. […] After 30 min of incubation at 310 K, T1 measurements were performed, from which the relaxivity of sensor-Zn^2+ was calculated. […]
experimental_endpoint: r1 Zn^2+ + 0.6 mM HSA

Q: Please give the measured r1 Zn^2+ + 0.6 mM HSA for this compound: O=C(O)CN1CCN(CC(=O)O)CCN(CC(=O)NCCN(Cc2ccccn2)Cc2ccccn2)CCN(CC(=O)O)CC1
Result: 17.8 ± 0.5^b s^−1 mM^−1

Q: Form field: reported r1 Zn^2+ + 0.6 mM HSA of O=C(O)CN1CCN(CCC(=O)NCCN(CCc2ccccn2)Cc2ccccn2)CCN(CC(=O)O)CCN(CC(=O)O)CC1
Result: 10.4 ± 0.3^b s^−1 mM^−1

Q: Which r1 Zn^2+ + 0.6 mM HSA is listed for O=C(O)CN1CCN(CC(=O)O)CCN(CC(=O)NCCN(CCc2ccccn2)Cc2ccccn2)CCN(CC(=O)O)CC1 ?
Result: 11.4 ± 0.3^b s^−1 mM^−1

Q: So what's the measured r1 Zn^2+ + 0.6 mM HSA for this one? O=C(O)CN1CCN(CCC(=O)NCCN(Cc2ccccn2)Cc2ccccn2)CCN(CC(=O)O)CCN(CC(=O)O)CC1
Result: 19.8 ± 0.6^b s^−1 mM^−1

Q: // lookup r1 Zn^2+ + 0.6 mM HSA for O=C(O)CCN1CCN(CC(=O)O)CCN(CC(=O)NCCN(Cc2ccccn2)Cc2ccccn2)CCN(CC(=O)O)CC1
Result: 21.5 ± 0.7^b s^−1 mM^−1

====

experimental_protocol: GdL-Zn dissociation constants by fluorescence (ZnAF-2F competition)
Type: binding
measurement_conditions: K2 in FIG. 4; Tris buffer; read-out: KD(GdLZn)
Quick rule for you: Kd under 200 nM gets yes, anything else gets no.

Q: Does O=C(O)CN1CCN(CC(=O)O)CCN(CC(=O)NCCN(Cc2ccccn2)Cc2ccccn2)CCN(CC(=O)O)CC1 [GdL1] have Kd strictly under 200 nM?
Result: yes

Q: Please indicate whether the reported Kd of O=C(O)CCN1CCN(CC(=O)O)CCN(CC(=O)NCCN(Cc2ccccn2)Cc2ccccn2)CCN(CC(=O)O)CC1 [GdL3] is strictly below 200 nM.
Result: yes

Q: Field: below-cutoff. Rule: recorded Kd strictly less than 200 nM. Subject: O=C(O)CN1CCN(CCC(=O)NCCN(Cc2ccccn2)Cc2ccccn2)CCN(CC(=O)O)CCN(CC(=O)O)CC1 [GdL2]
Result: yes

Q: Report whether reported Kd is lower than 200 nM (strictly) for O=C(O)CN1CCN(CCC(=O)NCCN(CCc2ccccn2)Cc2ccccn2)CCN(CC(=O)O)CCN(CC(=O)O)CC1 [GdL5]
Result: no

Q: I'd appreciate it if you could check whether O=C(O)CN1CCN(CC(=O)O)CCN(CC(=O)NCCN(CCc2ccccn2)Cc2ccccn2)CCN(CC(=O)O)CC1 [GdL4] has Kd smaller than 200 nM.
Result: no

====

Can you tell me Kd for the items I'm about to list?
measured_target: HSA (Homo sapiens, UniProt P02768)
Construct: purchased Sigma-Aldrich
Sequence (P02768 25-609): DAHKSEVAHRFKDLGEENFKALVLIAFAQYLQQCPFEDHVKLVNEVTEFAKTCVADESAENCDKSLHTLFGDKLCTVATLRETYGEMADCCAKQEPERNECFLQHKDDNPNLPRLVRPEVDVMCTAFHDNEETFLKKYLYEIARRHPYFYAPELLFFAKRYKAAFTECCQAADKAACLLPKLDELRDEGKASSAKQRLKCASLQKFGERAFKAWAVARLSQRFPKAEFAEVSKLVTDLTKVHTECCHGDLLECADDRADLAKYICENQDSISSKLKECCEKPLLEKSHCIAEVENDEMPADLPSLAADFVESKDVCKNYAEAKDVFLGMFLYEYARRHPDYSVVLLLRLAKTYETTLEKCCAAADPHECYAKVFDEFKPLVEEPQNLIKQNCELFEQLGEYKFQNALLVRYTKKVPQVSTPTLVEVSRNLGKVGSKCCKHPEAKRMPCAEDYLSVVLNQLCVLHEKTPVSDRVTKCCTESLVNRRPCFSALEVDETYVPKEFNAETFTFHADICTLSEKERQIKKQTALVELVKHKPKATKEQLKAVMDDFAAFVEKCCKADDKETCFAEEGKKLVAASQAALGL
experimental_protocol: HSA dissociation constant by fluorescence competition with dansylglycine
Assay type: binding
measurement_conditions: one site competition fitting with dansylglycine; in presence of Zn^2+; read-out: KD(GdLZnHSA)
// note: answer is a bare numeric in µM

Q: Endpoint output: Kd of O=C(O)CN1CCN(CCC(=O)NCCN(CCc2ccccn2)Cc2ccccn2)CCN(CC(=O)O)CCN(CC(=O)O)CC1 . Value?
Result: 43

Q: Form field: reported Kd of O=C(O)CN1CCN(CCC(=O)NCCN(Cc2ccccn2)Cc2ccccn2)CCN(CC(=O)O)CCN(CC(=O)O)CC1
Result: 37

Q: Recorded Kd of O=C(O)CCN1CCN(CC(=O)O)CCN(CC(=O)NCCN(Cc2ccccn2)Cc2ccccn2)CCN(CC(=O)O)CC1 , please.
Result: 37

Q: I have this compound here, O=C(O)CN1CCN(CC(=O)O)CCN(CC(=O)NCCN(Cc2ccccn2)Cc2ccccn2)CCN(CC(=O)O)CC1 , and I need its recorded Kd.
Result: 36

Q: Form field: reported Kd of O=C(O)CN1CCN(CC(=O)O)CCN(CC(=O)NCCN(CCc2ccccn2)Cc2ccccn2)CCN(CC(=O)O)CC1
Result: 42

====

experimental_protocol: 17O NMR of Gd complexes (water exchange, SBM fitting)
Assay type: physicochemical
measurement_conditions: best-fit, 17O NMR; sometimes fixed
So I've got a bunch of compounds here, and I need their Δ^2 values.

Q: What does the record list as Δ^2 for O=C(O)CN1CCN(CCC(=O)NCCN(CCc2ccccn2)Cc2ccccn2)CCN(CC(=O)O)CCN(CC(=O)O)CC1 [GdL5] ?
Result: 0.67 ± 0.2 10^20 s^−2

Q: Could you share which Δ^2 value was measured for O=C(O)CCN1CCN(CC(=O)O)CCN(CC(=O)NCCN(Cc2ccccn2)Cc2ccccn2)CCN(CC(=O)O)CC1 [GdL3] ?
Result: 0.13 10^20 s^−2

Q: Requested field: Δ^2. Item: O=C(O)CN1CCN(CC(=O)O)CCN(CC(=O)NCCN(CCc2ccccn2)Cc2ccccn2)CCN(CC(=O)O)CC1 [GdL4]
Result: 0.16 10^20 s^−2

Q: I have this compound here, O=C(O)CN1CCN(CCC(=O)NCCN(Cc2ccccn2)Cc2ccccn2)CCN(CC(=O)O)CCN(CC(=O)O)CC1 [GdL2] , and I need its recorded Δ^2.
Result: 0.13 ± 0.01 10^20 s^−2

Q: Quick one: Δ^2 for O=C(O)CN1CCN(CC(=O)O)CCN(CC(=O)NCCN(Cc2ccccn2)Cc2ccccn2)CCN(CC(=O)O)CC1 [GdL1] ?
Result: 0.10 ± 0.01 10^20 s^−2

====

experimental_protocol: 17O NMR of Gd complexes (water exchange, SBM fitting)
Assay type: physicochemical
measurement_conditions: best-fit, 17O NMR; rotational correlation time
experimental_endpoint: τRO^298

Q: GET /values?readout=τRO^298&item= O=C(O)CN1CCN(CCC(=O)NCCN(Cc2ccccn2)Cc2ccccn2)CCN(CC(=O)O)CCN(CC(=O)O)CC1
Result: 320 ± 11 ps

Q: What value of τRO^298 has been reported for the following compound? O=C(O)CN1CCN(CCC(=O)NCCN(CCc2ccccn2)Cc2ccccn2)CCN(CC(=O)O)CCN(CC(=O)O)CC1
Result: 305 ± 10 ps

Q: // τRO^298 lookup, key: O=C(O)CCN1CCN(CC(=O)O)CCN(CC(=O)NCCN(Cc2ccccn2)Cc2ccccn2)CCN(CC(=O)O)CC1
Result: 320 ps

Q: Which measured τRO^298 value corresponds to O=C(O)CN1CCN(CC(=O)O)CCN(CC(=O)NCCN(CCc2ccccn2)Cc2ccccn2)CCN(CC(=O)O)CC1 ?
Result: 350 ± 12 ps

Q: Give the measured τRO^298 of O=C(O)CN1CCN(CC(=O)O)CCN(CC(=O)NCCN(Cc2ccccn2)Cc2ccccn2)CCN(CC(=O)O)CC1 .
Result: 280 ± 11 ps
